experiment: physchem; conditions: buffer
measured metric: half-life

Below, 2 molecules whose answers are already recorded.
O=C1C(Cl)=C(Cl)C(=O)N1Cc1ccccc1    < 5 min
O=C1OC(c2ccccc2)C(Br)=C1Br (stereo not drawn)    < 5 min

As a next step, examine the molecule that follows.
input: Field request: half-life | item: C#CCOC1OC(=O)C(Cl)=C1Cl (stereo not drawn)
output: < 5 min
